These entries and their values trace back to patent US20260274955A1.

- system_name: T1, anti-CD28 Fab (SEQ ID NOs: 202, 203)
- T1 construct: biotinylated and captured on neutravidin coated plates in the phage ELISA
- procedure_summary: phage ELISA on captured Fab, wells pre-incubated with CD28 antigen (competitor);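 note: clonal phage ELISA with wells pretreated with CD28 plus blocking buffer before phage addition, bound phage detected by HRP-linked anti-M13 antibody, reference wells got blocking buffer only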
// assign yes (1) if Anti-CD28 Fab signal in the presence of CD28 falls strictly below 0.08, else no (0) (ties count as no (0))

These recorded examples may help you get a feel for the data.
{"columns": ["binder", "group"],
 "data": [
  ["YCDGHAWQYMWKCL (on phage, pIII fusion) [Phage-554]", "yes (1)"],
  ["YCEGHAVEYMAKCL (on phage, pIII fusion) [Phage-593]", "yes (1)"],
  ["YCDGHLLEYKAKCL (on phage, pIII fusion) [Phage-503]", "yes (1)"],
  ["YCEGHLPQYMVKCL (on phage, pIII fusion) [Phage-527]", "yes (1)"],
  ["YCDGHAAEYMAKCV (on phage, pIII fusion) [Phage-459]", "yes (1)"],
  ["YCDGHAQEYRLKCL (on phage, pIII fusion) [Phage-477]", "yes (1)"]
]}

stdin: # strict comparison: is reported Anti-CD28 Fab signal in the presence of CD28 < 0.08? input = YCAGHLPEFMDKCL (on phage, pIII fusion) [Phage-468]
stdout: yes (1)

stdin: Consider YCEGHLAVYMEKCL (on phage, pIII fusion) [Phage-473] . Does its Anti-CD28 Fab signal in the presence of CD28 lie strictly below 0.08?
stdout: no (0)

stdin: Dear reviewer, please state whether YCDGHGPQYIQKCL (on phage, pIII fusion) [Phage-479] has Anti-CD28 Fab signal in the presence of CD28 strictly beneath 0.08.
stdout: yes (1)

stdin: Take the binder YCSGHLPQYLEKCL (on phage, pIII fusion) [Phage-567] and say whether its Anti-CD28 Fab signal in the presence of CD28 is less than 0.08.
stdout: no (0)

stdin: Is 0.08 strictly greater than the binder's reported Anti-CD28 Fab signal in the presence of CD28? binder: YCEGHSSEYMWKCL (on phage, pIII fusion) [Phage-490]
stdout: no (0)

stdin: Please let me know if YCEGHDLIYMWKCL (on phage, pIII fusion) [Phage-488] shows Anti-CD28 Fab signal in the presence of CD28 below 0.08.
stdout: yes (1)

stdin: is_below(Anti-CD28 Fab signal in the presence of CD28, 0.08) for YCAGHSSEYIPKCL (on phage, pIII fusion) [Phage-524] ?
stdout: no (0)

stdin: Identify whether the binder YCDGHLAIYMWKCL (on phage, pIII fusion) [Phage-587] records Anti-CD28 Fab signal in the presence of CD28 below 0.08.
stdout: no (0)

stdin: Given the entry YCDGHLPEYMNQCL (on phage, pIII fusion) [Phage-597] , would its reported Anti-CD28 Fab signal in the presence of CD28 be below 0.08?
stdout: yes (1)

stdin: Quick check: does YCEGHIMQYMAQCL (on phage, pIII fusion) [Phage-570] have Anti-CD28 Fab signal in the presence of CD28 under 0.08?
stdout: yes (1)

stdin: Consider the binder YCDGHRVEYMAKCL (on phage, pIII fusion) [Phage-522] . Is its Anti-CD28 Fab signal in the presence of CD28 strictly less than 0.08?
stdout: no (0)

stdin: Threshold test, Anti-CD28 Fab signal in the presence of CD28 < 0.08: YCDGHAKEYIQKCL (on phage, pIII fusion) [Phage-526]
stdout: yes (1)
